Every entry's value here was drawn from patent US20250289893A1.

experimental-target: T1, human CD1a expressed on cells (human, UniProt P06126 17-327; P61769 21-119)
T1 construct: also called HEK - CD1a; C1R - CD1a
method-summary: flow cytometry, HEK-293 cells, 10 µg/ml antibody
For each entry below, report its Fluorescence Intensity Geomean (normalized to background) value.
The reply should contain only the number, in fold over background.

# input State the recorded Fluorescence Intensity Geomean (normalized to background) for this entry: 16 (VR11834) (antibody, V domains shown, also called OX16; antibody 16) VH: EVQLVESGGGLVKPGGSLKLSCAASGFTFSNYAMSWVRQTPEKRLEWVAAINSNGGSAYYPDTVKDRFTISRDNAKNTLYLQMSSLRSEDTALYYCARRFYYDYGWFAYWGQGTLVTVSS VL: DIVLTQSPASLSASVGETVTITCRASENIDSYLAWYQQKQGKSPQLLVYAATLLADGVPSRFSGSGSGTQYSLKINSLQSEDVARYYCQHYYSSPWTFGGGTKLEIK
# output 10.2

# input Another binder to check: 110 (VR12112) (antibody, V domains shown, also called OX110; antibody 110) VH: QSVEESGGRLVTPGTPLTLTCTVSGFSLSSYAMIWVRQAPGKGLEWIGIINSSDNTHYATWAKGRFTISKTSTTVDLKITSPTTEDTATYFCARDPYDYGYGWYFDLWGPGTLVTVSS VL: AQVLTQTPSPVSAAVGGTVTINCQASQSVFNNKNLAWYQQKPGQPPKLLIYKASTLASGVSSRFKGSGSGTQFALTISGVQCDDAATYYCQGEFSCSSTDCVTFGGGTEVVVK
# output 15.7

# input Next record, please: 77A (VR11851) (antibody, V domains shown, also called OX77a; antibody 77a) VH: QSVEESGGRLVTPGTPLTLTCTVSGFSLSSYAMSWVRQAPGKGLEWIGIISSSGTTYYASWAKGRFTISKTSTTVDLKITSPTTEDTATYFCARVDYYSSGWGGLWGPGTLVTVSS VL: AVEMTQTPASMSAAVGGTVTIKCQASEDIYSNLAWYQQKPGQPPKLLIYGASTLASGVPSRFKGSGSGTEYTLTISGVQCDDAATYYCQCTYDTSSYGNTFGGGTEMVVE
# output 13.7

# input Also check 116 (VR12117) (antibody, V domains shown, also called OX116) VH: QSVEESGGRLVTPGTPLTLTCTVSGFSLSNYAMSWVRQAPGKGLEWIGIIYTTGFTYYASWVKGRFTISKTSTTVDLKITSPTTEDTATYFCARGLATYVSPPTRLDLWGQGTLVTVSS VL: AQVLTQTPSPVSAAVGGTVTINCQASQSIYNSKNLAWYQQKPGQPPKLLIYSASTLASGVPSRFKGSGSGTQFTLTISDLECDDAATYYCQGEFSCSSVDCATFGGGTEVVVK
# output 12.6

# input One more binder: 111 (VR12113) (antibody, V domains shown, also called OX111) VH: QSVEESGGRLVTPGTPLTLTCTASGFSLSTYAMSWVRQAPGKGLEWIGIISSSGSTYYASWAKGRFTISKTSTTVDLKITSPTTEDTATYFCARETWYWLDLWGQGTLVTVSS VL: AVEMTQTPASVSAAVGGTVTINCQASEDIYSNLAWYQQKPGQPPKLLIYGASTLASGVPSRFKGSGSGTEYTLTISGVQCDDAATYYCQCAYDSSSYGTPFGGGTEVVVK
# output 11.1
